- Measured Target: Histone deacetylase 4 (Homo sapiens, UniProt P56524)
- Sequence (P56524 whole entry): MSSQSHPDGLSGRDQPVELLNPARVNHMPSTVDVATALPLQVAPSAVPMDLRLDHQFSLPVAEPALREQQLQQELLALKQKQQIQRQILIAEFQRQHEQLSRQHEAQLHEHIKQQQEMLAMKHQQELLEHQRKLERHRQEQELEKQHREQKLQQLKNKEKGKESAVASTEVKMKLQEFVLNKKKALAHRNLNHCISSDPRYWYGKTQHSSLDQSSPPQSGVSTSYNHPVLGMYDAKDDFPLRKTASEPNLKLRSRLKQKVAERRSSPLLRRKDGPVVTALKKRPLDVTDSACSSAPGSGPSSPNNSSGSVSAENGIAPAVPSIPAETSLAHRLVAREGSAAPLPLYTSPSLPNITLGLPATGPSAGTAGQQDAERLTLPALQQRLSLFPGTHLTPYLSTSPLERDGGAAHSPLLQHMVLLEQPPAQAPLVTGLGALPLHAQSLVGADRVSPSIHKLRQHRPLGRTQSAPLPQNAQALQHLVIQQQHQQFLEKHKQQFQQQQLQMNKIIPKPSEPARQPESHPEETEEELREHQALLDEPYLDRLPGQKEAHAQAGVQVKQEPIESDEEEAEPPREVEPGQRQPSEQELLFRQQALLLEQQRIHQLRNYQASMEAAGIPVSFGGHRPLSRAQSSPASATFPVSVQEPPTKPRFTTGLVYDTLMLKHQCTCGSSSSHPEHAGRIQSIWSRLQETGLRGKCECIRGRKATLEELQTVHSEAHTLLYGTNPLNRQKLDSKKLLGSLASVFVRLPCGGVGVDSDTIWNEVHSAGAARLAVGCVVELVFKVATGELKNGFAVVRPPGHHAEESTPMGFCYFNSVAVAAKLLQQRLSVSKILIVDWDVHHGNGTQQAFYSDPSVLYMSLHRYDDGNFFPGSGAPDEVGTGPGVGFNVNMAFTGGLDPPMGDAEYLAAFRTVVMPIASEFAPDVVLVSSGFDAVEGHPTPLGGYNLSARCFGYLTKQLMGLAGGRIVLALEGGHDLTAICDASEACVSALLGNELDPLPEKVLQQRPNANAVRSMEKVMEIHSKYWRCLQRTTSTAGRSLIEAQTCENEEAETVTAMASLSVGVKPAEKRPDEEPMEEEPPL
- Assay Method Text: Inhibition of human recombinant HDAC4 by Michaelis-Menten equation analysis

- Compound: "CC(C)c1cccc(=O)c(O)c1 [HINOKITIOL]"
  Unit Symbol: "µM"
  Result Comparator: ">"
  Ki: 20
- Compound: "COc1ccc(-c2cccc(O)c(=O)c2)cc1"
  Unit Symbol: "µM"
  Result Comparator: "="
  Ki: 8.36
- Compound: "O=c1c(O)ccccc1-c1ccc2ccccc2c1"
  Unit Symbol: "µM"
  Result Comparator: ">"
  Ki: 20
- Compound: "COc1ccc(OC)c(-c2cccc(O)c(=O)c2)c1"
  Unit Symbol: "µM"
  Result Comparator: "="
  Ki: 11.2
- Compound: "O=c1cc(C2CCCC2)cccc1O"
  Unit Symbol: "µM"
  Result Comparator: "="
  Ki: 0.99
- Compound: "COc1cccc(C(C)C)cc1=O"
  Unit Symbol: "µM"
  Result Comparator: "="
  Ki: 11.6
